biological target: T1, hCD71-Nluc fusion protein (human, UniProt P02786 1-760); assay: nanoBRET competition, tracer BCY17871-1598988 60 nM, HEK293 hCD71-Nluc membranes
T1 construct: whole, on cells; Used as crude membrane fractions of HEK293 cells stably expressing hCD71-Nluc; also called human transferrin receptor, CD71, fused to NanoLuc; not shown: NanoLuc (ProMega) luciferase joined through its N-terminal Val
T1 sequence (P02786 other isoform, or with tags, fused parts or gaps): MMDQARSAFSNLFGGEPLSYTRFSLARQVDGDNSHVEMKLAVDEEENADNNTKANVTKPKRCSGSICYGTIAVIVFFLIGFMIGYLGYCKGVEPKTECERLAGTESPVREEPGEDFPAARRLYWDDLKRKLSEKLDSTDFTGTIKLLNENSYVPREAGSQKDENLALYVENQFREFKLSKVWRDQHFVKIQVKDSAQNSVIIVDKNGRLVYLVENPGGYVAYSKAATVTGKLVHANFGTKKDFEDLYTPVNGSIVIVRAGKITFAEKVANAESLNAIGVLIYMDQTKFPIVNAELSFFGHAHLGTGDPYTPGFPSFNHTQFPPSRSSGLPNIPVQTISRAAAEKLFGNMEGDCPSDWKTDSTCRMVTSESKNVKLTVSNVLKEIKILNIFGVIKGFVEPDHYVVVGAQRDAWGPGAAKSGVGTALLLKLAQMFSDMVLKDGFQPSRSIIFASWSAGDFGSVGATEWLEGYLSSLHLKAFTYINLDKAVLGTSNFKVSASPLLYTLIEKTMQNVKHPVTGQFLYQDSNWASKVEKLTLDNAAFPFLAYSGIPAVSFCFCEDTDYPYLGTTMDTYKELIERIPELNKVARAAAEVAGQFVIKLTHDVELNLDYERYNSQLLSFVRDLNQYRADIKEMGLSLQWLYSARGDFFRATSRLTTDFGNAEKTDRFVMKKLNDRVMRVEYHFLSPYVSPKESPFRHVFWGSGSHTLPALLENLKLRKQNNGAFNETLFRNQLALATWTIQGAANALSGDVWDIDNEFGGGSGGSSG
Starred links: 1 amine or outer side, 2 acyl side, 3 side chain; linkers in the order of their positions; H or OH if unused. Positions of bridges follow the written chain, without caps; N, C: chain ends. Non-standard residues stand in square brackets, D forms with d. TATB = O=C(C[*:1])N1CN(C(=O)C[*:2])CN(C(=O)C[*:3])C1; Lys(N3) = [N-]=[N+]=NCCCC[C@H](N)C(=O)O
measured_endpoint: Ki

Below: 3 binders and their reported Ki.
CPXDAYLGCXSYCX (not fully specified; as printed CP[HyP]DAYLGC[tBuGly]SYC[K(N3)]: N-terminal acetyl; C-terminal amide; three Cys bound to TATB scaffold; [HyP] 4-trans-hydroxy-L-proline at 3; [tBuGly] t-butyl glycine at 10; [K(N3)] 6-azido lysine at 14 joined via BCN linker to oligonucleotide 1590463, also called Compound No. 1590463 conjugated to BCY17896) [1590463-BCY17896] ... 2 nM
Ac-CS[Lys(N3)]DAHLGCISYC-NH2 (linker 1-9-13 via TATB; not fully specified (residue 3); printed as CS[K(N3)]DAHLGCISYC; also: azide of K(N3) in loop clicked via BCN linker to oligonucleotide 1590463, also called Compound No. 1590463 conjugated to BCY17904) [1590463-BCY17904] ... 60 nM
NWNCPXDAYLGCXSYCX (not fully specified; as printed NWNCP[HyP]DAYLGC[tBuGly]SYC[K(N3)]: N-terminal acetyl; C-terminal amide; three Cys bound to TATB scaffold; [HyP] 4-trans-hydroxy-L-proline at 6; [tBuGly] t-butyl glycine at 13; [K(N3)] 6-azido lysine at 17 joined via BCN linker to oligonucleotide 1590463, also called Compound No. 1590463 conjugated to BCY17899) [1590463-BCY17899] ... 4 nM

# next binder below
[Q] // lookup Ki for CSPDAHLGCISYCEPWX (not fully specified; as printed CSPDAHLGCISYCEPW[K(N3)]: N-terminal acetyl; C-terminal amide; three Cys bound to TATB scaffold; [K(N3)] 6-azido lysine at 17 joined via BCN linker to oligonucleotide 1590463, also called Compound No. 1590463 conjugated to BCY17873) [1590463-BCY17873]
[A] 10 nM
